# System: OS-RC-2 (Kidney Carcinoma);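 further: after 72 h of two-drug dosing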
# Method notes: Bliss excess, mean over the matrix (fraction); higher = more synergy
Quick rule: Bliss excess of at least -0.05 means True, below that means False.

Molecule	Class name
CC1(C)CCC(CN2CCN(c3ccc(C(=O)NS(=O)(=O)c4ccc(NCC5CCOCC5)c([N+](=O)[O-])c4)c(Oc4cnc5[nH]ccc5c4)c3)CC2)=C(c2ccc(Cl)cc2)C1 [Venetoclax] + CCN(CCO)CCCOc1ccc2c(Nc3cc(CC(=O)Nc4cccc(F)c4)[nH]n3)ncnc2c1 [AZD2811] (first compound max 1 µM, 7x7, partner max 1 µM)	True
CCN(CCO)CCCOc1ccc2c(Nc3cc(CC(=O)Nc4cccc(F)c4)[nH]n3)ncnc2c1 [AZD2811] + O=C(c1cc(Cc2n[nH]c(=O)c3ccccc23)ccc1F)N1CCN(C(=O)C2CC2)CC1 [Olaparib] (first compound max 1 µM, 7x7, partner max 10 µM)	True
C[C@@H](c1ccc2nccn2c1)n1nnc2ncc(-c3cnn(C)c3)nc21 [Savolitinib] + CC1(C)CCC(CN2CCN(c3ccc(C(=O)NS(=O)(=O)c4ccc(NCC5CCOCC5)c([N+](=O)[O-])c4)c(Oc4cnc5[nH]ccc5c4)c3)CC2)=C(c2ccc(Cl)cc2)C1 [Venetoclax] (first compound max 1 µM, 7x7, partner max 1 µM)	False
Cc1c2c(nn1C)CSCc1cc(n(C)n1)CSc1cc(c3ccccc3c1)OCCCc1c(C(=O)O)n(C)c3c-2c(Cl)ccc13 [AZD5991] + C[C@@H](Nc1cc(F)cc(F)c1)c1cc(C(=O)N(C)C)cc2c(=O)cc(N3CCOCC3)oc12 [AZD8186] (first compound max 1 µM, 7x7, partner max 3 µM)	True
COc1cccc2c1C(=O)c1c(O)c3c(c(O)c1C2=O)C[C@@](O)(C(=O)CO)C[C@@H]3O[C@H]1C[C@H](N)[C@H](O)[C@H](C)O1 [Doxorubicin] + Cc1cc2ncnn2cc1Nc1ncc2c(n1)n(C1CCOCC1)c(=O)n2C [AZD7648] (first compound max 1 µM, 7x7, partner max 10 µM)	True
Cc1c2c(nn1C)CSCc1cc(n(C)n1)CSc1cc(c3ccccc3c1)OCCCc1c(C(=O)O)n(C)c3c-2c(Cl)ccc13 [AZD5991] + CC1(C)CCC(CN2CCN(c3ccc(C(=O)NS(=O)(=O)c4ccc(NCC5CCOCC5)c([N+](=O)[O-])c4)c(Oc4cnc5[nH]ccc5c4)c3)CC2)=C(c2ccc(Cl)cc2)C1 [Venetoclax] (first compound max 1 µM, 7x7, partner max 1 µM)	False
